# Study Target: monoamine oxidase (bovine plasma amine oxidase) (Bos taurus, UniProt P21398+P56560)
# Test Method Notes: In vitro bovine plasma monoamine oxidase deamination without semicarbazide
# Format: cell-free
# Experimental Conditions: cattle, read-out: MAO deamination
Quantity Name: metabolised (%)

>>> numeric_readout("COc1ccc(CCN)cc1OC")
64
>>> numeric_readout("COc1ccc(CCN)c(SC)c1OC")
78
>>> numeric_readout("COc1cc(CCN)cc(OC)c1SC")
56
>>> numeric_readout("COc1c(CCN)ccc(SC)c1OC")
40
>>> numeric_readout("COc1cc(CCN)cc(SC)c1OC")
60
>>> numeric_readout("COc1ccc(CCN)c(OC)c1SC")
31
>>> numeric_readout("COc1ccc(CCN)c(OC)c1OC")
55
>>> numeric_readout("COc1cc(CCN)cc(OC)c1OC")
21
